target: PARP6 (Homo sapiens); construct: Recombinant full length GST tagged PARP6 protein; GST; test: PARP fluorescence anisotropy binding assay, PARP6; settings: recombinant full length GST tagged PARP6
Sequence (Q2NL67 whole entry): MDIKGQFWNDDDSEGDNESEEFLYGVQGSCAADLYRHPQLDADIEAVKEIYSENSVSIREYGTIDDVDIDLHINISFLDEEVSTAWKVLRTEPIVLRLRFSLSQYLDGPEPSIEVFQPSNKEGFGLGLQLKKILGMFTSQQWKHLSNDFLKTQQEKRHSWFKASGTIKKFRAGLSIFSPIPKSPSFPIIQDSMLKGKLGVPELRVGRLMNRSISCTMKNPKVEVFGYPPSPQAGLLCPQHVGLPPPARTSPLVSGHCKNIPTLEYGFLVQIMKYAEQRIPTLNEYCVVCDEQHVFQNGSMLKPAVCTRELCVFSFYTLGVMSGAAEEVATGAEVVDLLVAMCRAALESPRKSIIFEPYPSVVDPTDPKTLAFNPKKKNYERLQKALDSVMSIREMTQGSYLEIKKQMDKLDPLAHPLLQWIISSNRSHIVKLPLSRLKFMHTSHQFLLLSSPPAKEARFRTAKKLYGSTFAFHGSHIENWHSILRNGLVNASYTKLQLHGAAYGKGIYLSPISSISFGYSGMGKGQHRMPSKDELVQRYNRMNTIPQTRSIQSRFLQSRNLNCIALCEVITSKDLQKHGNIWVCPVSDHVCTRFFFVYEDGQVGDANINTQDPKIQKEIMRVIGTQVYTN
pIC50: −log10 of the molar value.
Listed below: pIC50 values for each entry.
quantity_kind: pIC50

CNC(=O)c1ccc(N2CCN(Cc3ccc4nc(C(C)F)c(=O)[nH]c4c3F)CC2)c(F)n1 (single isomer, unassigned) [Example 13]	< 4.00
CNC(=O)c1ccc(N2CCN(Cc3ccc4nc(C)c(=O)[nH]c4c3Cl)CC2)c(F)n1	< 4.00
CCc1nc2ccc(CN3CCN(c4ccc(C(=O)NC)nc4F)CC3)c(Cl)c2[nH]c1=O	< 4.00
CCc1nc2ccc(CN3CCN(c4ccc(C(=O)NC)nc4)CC3)c(Cl)c2[nH]c1=O	< 4.00

---

tested on: BRCA2 (−/−) DLD1 cells; assay: PARP proliferation assay (7 day compound dosing), BRCA2 (−/−) DLD1; assay type: cell-based; details: Homo sapiens, DLD-1, 168 h, BRCA2 −/− DLD-1 cells, 7 day dosing; read-out: BRCA2 −/− DLD-1 prolif. 7 d IC50
pIC50: −log10 of the molar value.
quantity_kind: pIC50

CNC(=O)c1ccc(N2CCN(Cc3ccc4nc(OC)c(=O)[nH]c4c3F)CC2)c(C)n1	8.15
CCc1nc2ccc(CN3CCN(c4ccc(C(=O)NC)nc4C)CC3)c(C)c2[nH]c1=O	8.22
CNC(=O)c1ccc(N2CCN(Cc3ccc4nc(C)c(=O)[nH]c4c3C)CC2)c(Cl)n1	8.10
CNC(=O)c1ccc(N2CCN(Cc3ccc4nc(C)c(=O)[nH]c4c3C)CC2)c(C)n1	7.09
Cc1nc2ccc(CN3CCN(c4ccc(C(N)=O)nc4F)CC3)c(C)c2[nH]c1=O	5.54
CNC(=O)c1ccc(N2CCN(Cc3ccc4nc(C)c(=O)[nH]c4c3F)CC2)c(C(F)F)n1	5.85

---

system: BRCA2 (−/−) DLD1 cells; assay: PARP proliferation assay (7 day compound dosing), BRCA2 (−/−) DLD1; format: cell-based; settings: Homo sapiens, DLD-1, 168 h, BRCA2 −/− DLD-1 cells, 7 day dosing; read-out: BRCA2 −/− DLD-1 prolif. 7 d IC50
quantity_kind: log10(IC50) (log10 of the value in nM)

CNC(=O)c1ccc(N2CCN(Cc3ccc4nc(C(F)(F)F)c(=O)[nH]c4c3F)CC2)c(F)n1 [Example 48]	1.26
CNC(=O)c1ccc(N2CCN(Cc3ccc4nc(C)c(=O)[nH]c4c3C)CC2)cn1 [Example 2]	2.87
CNC(=O)c1ccc(N2CCN(Cc3ccc4nc(C)c(=O)[nH]c4c3Cl)CC2)cn1 [Example 16]	3.56
CCc1nc2ccc(CN3CCN(c4ccc(C(=O)NC)nc4C)CC3)c(Cl)c2[nH]c1=O [Example 11]	0.95
CCc1nc2ccc(CN3CCN(c4ccc(C(=O)NC)nc4F)CC3)c(Cl)c2[nH]c1=O [Example 9]	1.00
CCc1nc2ccc(CN3CCN(c4ccc(C(=O)NC)nc4C)CC3)c(F)c2[nH]c1=O [Example 23]	0.48
CCc1nc2ccc(CN3CCN(c4ccc(C(=O)NC)nc4)CC3)c(F)c2[nH]c1=O [Example 29]	0.70
CNC(=O)c1ccc(N2CCN(Cc3ccc4nc(C(F)(F)F)c(=O)[nH]c4c3F)CC2)c(C)n1 [Example 47]	1.76

---

molecular target: PARP3 (Homo sapiens, UniProt Q9Y6F1); construct: Recombinant full length PARP3 protein; assay: PARP fluorescence anisotropy binding assay, PARP3; settings: recombinant full length PARP3
Sequence (Q9Y6F1 whole entry): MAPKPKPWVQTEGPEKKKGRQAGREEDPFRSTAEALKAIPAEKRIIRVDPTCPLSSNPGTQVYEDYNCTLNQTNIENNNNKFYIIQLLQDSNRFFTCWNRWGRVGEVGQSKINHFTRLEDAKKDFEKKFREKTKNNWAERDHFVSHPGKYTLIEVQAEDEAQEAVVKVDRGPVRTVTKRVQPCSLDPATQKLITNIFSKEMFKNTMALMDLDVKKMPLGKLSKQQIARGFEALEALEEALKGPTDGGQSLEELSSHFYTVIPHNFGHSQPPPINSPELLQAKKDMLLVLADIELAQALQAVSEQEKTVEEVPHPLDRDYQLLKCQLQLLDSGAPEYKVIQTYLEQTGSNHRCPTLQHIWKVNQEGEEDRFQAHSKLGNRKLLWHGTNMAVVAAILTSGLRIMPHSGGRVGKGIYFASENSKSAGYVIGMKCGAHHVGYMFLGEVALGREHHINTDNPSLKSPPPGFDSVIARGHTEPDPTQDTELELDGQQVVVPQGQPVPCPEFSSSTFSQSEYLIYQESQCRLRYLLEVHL
quantity_kind: IC50

CCc1nc2ccc(CN3CCN(c4ccc(C(=O)NC)nc4)CC3)c(Cl)c2[nH]c1=O	> 100 µM
CCc1nc2ccc(CN3CCN(c4ccc(C(=O)NC)nc4F)CC3)c(Cl)c2[nH]c1=O	> 100 µM
CNC(=O)c1ccc(N2CCN(Cc3ccc4nc(C)c(=O)[nH]c4c3Cl)CC2)cn1	> 100 µM
CNC(=O)c1ccc(N2CCN(Cc3ccc4nc(C(C)F)c(=O)[nH]c4c3F)CC2)c(F)n1 (single isomer, unassigned) [Example 13]	62 µM
